- TARGET: GLP-1 receptor (UniProt P43220 24-463, limits assumed)
- RUN_DESCRIPTION: cell-based or functional assay
Positions of bridges follow the written chain, without caps; N, C: chain ends. Non-standard residues stand in square brackets, D forms with d. No end group written: not given here. *: point of attachment. Isobutyryl(2-imidazol-4-yl) = CC(C)(C(=O)*)c1c[nH]cn1; PEG = not defined here; Aib = CC(C)(N)C(=O)O
Listed here: items and their measured % Potency Relative to Native.
Numeric only. Scale: %

Below, each entry is followed by its recorded % Potency Relative to Native result.
Challenge: // query % Potency Relative to Native value for entry [Isobutyryl(2-imidazol-4-yl)]SQGTFTSDYSKYLDEQAAKEFIC(PEG)WLMNT-NH2 (reading uncertain) [Chimera DMIA1, Cys24 (SEQ ID NO: 519), parent w/PEG]
Response given: 19.3

Challenge: // query % Potency Relative to Native value for entry HSQGTFTSDYSKYLDEQAAKEFIC(PEG)WLMNT-NH2 (reading uncertain) [Chimera Cys24 (SEQ ID NO: 518), parent w/PEG]
Response given: 29.3

Challenge: // query % Potency Relative to Native value for entry H[Aib]QGTFTSDYSKYLDEQAAKEFIAWLMNC(PEG)-NH2 (reading uncertain) [Chimera AIB2, Cys29 (SEQ ID NO: 487), parent w/PEG]
Response given: 54.3

Challenge: // query % Potency Relative to Native value for entry H[Aib]QGTFTSDYSKYLDEQAAKEFIC(PEG)WLMNGGPSSGAPPPS-NH2 (lactam 16-20; reading uncertain) [Chimera AIB2, Gly29,30 Cys24 Cex Lactam (SEQ ID NO: 491), parent w/PEG]
Response given: 96.4

More entries:
Challenge: // query % Potency Relative to Native value for entry [Isobutyryl(2-imidazol-4-yl)]SQGTFTSDYSKYLDEQAAKEFIAWLMNC(PEG)-NH2 (reading uncertain) [Chimera DMIA1, Cys29 (SEQ ID NO: 520), parent w/PEG]
Response given: 27.3
